Where these numbers come from: PubChem BioAssay (NCI)

# Test system: CAKI-1 renal
# TEST_DETAILS: NCI-60 one-dose screen, 48 h (100 = growth as untreated, 0 = no growth, -100 = all killed)
# REPORTED_CONDITIONS: 10 µM unless noted
This is part of a sample that, as a whole, favours compounds with a hit. Of some 83,000 tested, about 20% had one in any assay. The source made the active and inactive calls. How the source made its calls: active means growth percent below 10; inactive means the rest.
Recorded growth, one value per entry.
PROPERTY_LABEL: growth

| SAMPLE_SMILES | PROPERTY_LABEL | OBSERVED_VALUE |
| --- | --- | --- |
| C#Cc1cccc(Nc2nc(C)nc3cc(NC(=O)CCl)ccc23)c1 | growth | -91% (active) |
| CCOC(=O)c1c(C)nc2ccccc2c1/C=C/c1ccccc1 | growth | 59.5% (inactive) |
| COc1ccc(Cn2cc(C(=O)N=Nc3c(O)[nH]c4c(C)cccc34)nn2)cc1 | growth | 77.1% (inactive) |
| CCS/C(Nc1ccccc1)=C(\C#N)C(=O)Nc1ccc(OC)cc1 | growth | 40.4% (inactive) |
| O=C(/C=C/c1ccc(Oc2ccc(Br)cc2)cc1)c1ccc(Br)cc1 | growth | 93.5% (inactive) |
| Cc1ccc(C)c2c(C)c(C(=O)Nc3cccc(-n4cccn4)c3)oc12 | growth | 44.6% [50 µM] (inactive) |
